- Test system: Calf thymus DNA
- experimental_protocol: Binding affinity to calf thymus DNA assessed as change in melting temperature at 5.2 X 10^-6 M by thermal denaturation assay
- Assay type: nucleic-acid assay
- condition_set: Bos taurus
*1 amine or outer side, *2 acyl side, *3 side chain or, on linkers, in order; H or OH if unused. Where a SMILES comes first, the peptide text is derived from it. Bridges are numbered along the chain shown (N, C = ends). Roman numbers before positions name the chains, in order. [ ]: non-standard residue; d: D form. Actinocin(1to9) = Cc1c2oc3c(C)ccc(C(=O)[*:2])c3nc-2c(C(=O)[*:1])c(N)c1=O; NMeV = CN[C@H](C(=O)O)C(C)C; Sar = CNCC(=O)O
Give ΔTm for every item shown.
Please append the unit to your numeric answer.

Query block: Returns the measured ΔTm for the input compound. Input: Cc1c2oc3c(C)ccc(C(=O)N[C@@H]4C(=O)N[C@H](C(C)C)C(=O)N5CCC[C@H]5C(=O)N(C)CC(=O)N(C)[C@@H](C(C)C)C(=O)O[C@@H]4C)c3nc-2c(C(=O)N[C@@H]2C(=O)N[C@H](C(C)C)C(=O)N3CCC[C@H]3C(=O)N(C)CC(=O)N(C)[C@@H](C(C)C)C(=O)O[C@@H]2C)c(N)c1=O [DACTINOMYCIN] (I: T[dV]P[Sar][NMeV] / II: T[dV]P[Sar][NMeV]; ester I:1-I:C, II:1-II:C; linker I:N-II:N via Actinocin(1to9))
Result block: 7.1 °C

Query block: Returns the measured ΔTm for the input compound. Input: Cc1c2oc3c(C)ccc(C(=O)N[C@@H]4C(=O)N[C@H](C(C)C)C(=O)N5CCC[C@H]5C(=O)N(C)CC(=O)N(C)[C@@H](C(C)C)C(=O)O[C@@H]4C)c3nc-2c(C(=O)N[C@@H]2C(=O)N[C@H](C(C)C)C(=O)N3CCC[C@H]3C(=O)N(C)CC(=O)N(C)[C@@H](C(C)C)C(=O)O[C@@H]2C)c(Cl)c1=O
Result block: 1.6 °C

Query block: Returns the measured ΔTm for the input compound. Input: Cc1c2oc3c(C)ccc(C(=O)N[C@@H]4C(=O)N[C@H](C(C)C)C(=O)N5CCC[C@H]5C(=O)N(C)CC(=O)N(C)[C@@H](C(C)C)C(=O)O[C@@H]4C)c3nc-2c(C(=O)N[C@@H]2C(=O)N[C@H](C(C)C)C(=O)N3CCC[C@H]3C(=O)N(C)CC(=O)N(C)[C@@H](C(C)C)C(=O)O[C@@H]2C)cc1=O
Result block: 9.9 °C

Query block: Returns the measured ΔTm for the input compound. Input: Cc1c2oc3c(C)ccc(C(=O)N[C@@H]4C(=O)N[C@H](C(C)C)C(=O)N5CCC[C@H]5C(=O)N(C)CC(=O)N(C)[C@@H](C(C)C)C(=O)O[C@@H]4C)c3nc-2c(C(=O)N[C@@H]2C(=O)N[C@H](C(C)C)C(=O)N3CCC[C@H]3C(=O)N(C)CC(=O)N(C)[C@@H](C(C)C)C(=O)O[C@@H]2C)c(O)c1=O
Result block: 0 °C
